Test system: c-Abl (mouse);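 further: 11-residue human phosphosite peptides and single-mutation variants displayed on the E. coli surface, counted by deep sequencing, each peptide's frequency after selection divided by its frequency in the unselected input library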;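 further: frequency after pTyr selection over input frequency; kinase dosed for 20-30% of maximal phosphorylation in three min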
assay name: phosphorylation enrichment, bacterial display (enrichment ratio); higher = better substrate or ligand; peptides without Tyr show the background
// label = fulfilled if phosphorylation enrichment is not less than 0.6, otherwise not fulfilled

# example entries with known answers
AHPIIYEIIEA [PYKtide_E_2014] ... fulfilled
AGQKDYDRLRP [RAC3_Y64_E62K] ... fulfilled
GDFLSYREFHS [ERBIN_Y1107_YF] ... not fulfilled
CFTRKYTLPPG [HSPB1_Y142] ... fulfilled
NLSVRYDSSLK [ABCC8_Y1353] ... not fulfilled
GQECKYPPTQD [METAP2_Y137_E136K] ... fulfilled
SVTCTYSPAHN [TP53_Y126_L130H] ... fulfilled
RDWSLYFKIIE [KRT18_Y129_H128L] ... not fulfilled

In the following, a different sequence is considered.
Is phosphorylation enrichment for VRTGIYHGGKP [PIK3CA_Y361_E365K] at or above 0.6? not fulfilled
